Measured inhibition at 1 µM of individual entries
- Tgt: FAK (Homo sapiens, UniProt Q05397)
- Construct: Human recombinant full-length kinases were incubated in kinase buffer
- Sequence (Q05397 whole entry): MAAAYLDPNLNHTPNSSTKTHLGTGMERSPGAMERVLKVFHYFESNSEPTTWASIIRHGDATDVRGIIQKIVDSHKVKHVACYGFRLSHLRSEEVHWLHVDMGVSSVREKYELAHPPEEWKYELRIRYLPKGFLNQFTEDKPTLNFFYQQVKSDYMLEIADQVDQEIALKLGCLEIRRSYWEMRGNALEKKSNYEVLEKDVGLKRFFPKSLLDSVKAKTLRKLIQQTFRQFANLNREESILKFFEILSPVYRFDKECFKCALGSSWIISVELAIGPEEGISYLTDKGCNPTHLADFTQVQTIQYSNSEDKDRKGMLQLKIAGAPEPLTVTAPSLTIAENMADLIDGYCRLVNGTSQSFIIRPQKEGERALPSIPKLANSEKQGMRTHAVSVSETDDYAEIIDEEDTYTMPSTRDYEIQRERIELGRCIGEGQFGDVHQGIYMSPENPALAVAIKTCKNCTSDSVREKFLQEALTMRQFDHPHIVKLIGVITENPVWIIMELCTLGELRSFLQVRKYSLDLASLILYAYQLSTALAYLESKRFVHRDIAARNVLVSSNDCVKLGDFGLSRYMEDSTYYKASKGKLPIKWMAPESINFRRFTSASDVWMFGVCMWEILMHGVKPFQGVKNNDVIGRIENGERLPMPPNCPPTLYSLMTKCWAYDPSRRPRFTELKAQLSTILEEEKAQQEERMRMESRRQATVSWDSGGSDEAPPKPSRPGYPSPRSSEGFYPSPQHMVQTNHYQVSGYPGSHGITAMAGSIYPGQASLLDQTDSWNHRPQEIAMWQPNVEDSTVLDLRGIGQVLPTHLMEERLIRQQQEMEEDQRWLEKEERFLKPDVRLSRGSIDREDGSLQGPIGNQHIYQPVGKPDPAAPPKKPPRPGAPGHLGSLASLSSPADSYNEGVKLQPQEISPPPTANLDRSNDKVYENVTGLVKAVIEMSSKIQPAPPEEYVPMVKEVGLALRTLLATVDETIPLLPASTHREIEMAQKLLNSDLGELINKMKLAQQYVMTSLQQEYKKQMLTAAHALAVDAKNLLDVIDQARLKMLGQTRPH
- Protocol text: In vitro kinase activity (Kinase-Glo luminescence)
- Assay type: biochemical
- Measurement context: read-out: FAK inhibition (% at 1 μM)

Solved cases (2 shown):
{"Molecule": "CC(=O)OCC1O[C@@H](NC(=O)c2ccc(-n3[se]c4ccccc4c3=O)cc2)C(OC(C)=O)C(OC(C)=O)[C@@H]1OC(C)=O (some centres unmarked)", "inhibition at 1 µM": "54%"}
{"Molecule": "CC(=O)OCC1O[C@@H](OC(=O)c2ccc(-n3[se]c4ccccc4c3=O)cc2)C(OC(C)=O)C(OC(C)=O)[C@H]1OC(C)=O (some centres unmarked)", "inhibition at 1 µM": "11%"}

Look at this molecule and give its reported inhibition at 1 µM. O=c1c2ccccc2[se]n1-c1ccc(O[C@@H]2OC(CO)[C@@H](O)C(O)C2O)cc1 (some centres unmarked)
15%

Please give the result for O=C(CCCn1[se]c2ccccc2c1=O)N[C@@H]1OC(CO)[C@H](O)C(O)C1O (some centres unmarked) too.
13%

Please give the result for CC(=O)OCC1O[C@@H](OC(=O)c2ccc(-n3[se]c4ccccc4c3=O)cc2)C(OC(C)=O)C(OC(C)=O)[C@@H]1O[C@@H]1OC(COC(C)=O)[C@H](OC(C)=O)C(OC(C)=O)C1OC(C)=O (some centres unmarked) too.
94%

Please give the result for O=C(N[C@@H]1OC(CO)[C@H](O)C(O)C1O)c1ccc(-n2[se]c3ccccc3c2=O)cc1 (some centres unmarked) too.
32%

Please give the result for CC(=O)OCC1O[C@@H](NC(=O)c2ccc(-n3[se]c4ccccc4c3=O)cc2)C(OC(C)=O)C(OC(C)=O)[C@H]1OC(C)=O (some centres unmarked) too.
72%

Please give the result for O=C(Cn1[se]c2ccccc2c1=O)N[C@@H]1OC(CO)[C@@H](O)C(O)C1O (some centres unmarked) too.
15%

Please give the result for O=C(N[C@@H]1OC(CO)[C@@H](O)C(O)C1O)c1ccc(-n2[se]c3ccccc3c2=O)cc1 (some centres unmarked) too.
60%

Please give the result for CC(=O)OCC1O[C@@H](OC(=O)c2ccc(-n3[se]c4ccccc4c3=O)cc2)C(OC(C)=O)C(OC(C)=O)[C@@H]1OC(C)=O (some centres unmarked) too.
85%

Please give the result for CC(=O)OCC1O[C@@H](OC(=O)Cn2[se]c3ccccc3c2=O)C(OC(C)=O)C(OC(C)=O)[C@@H]1OC(C)=O (some centres unmarked) too.
51.9%

Please give the result for CC(=O)OCC1O[C@@H](Oc2ccc(-n3[se]c4ccccc4c3=O)cc2)C(OC(C)=O)C(OC(C)=O)[C@@H]1OC(C)=O (some centres unmarked) too.
65%

Please give the result for O=C(OCC1O[C@@H](OC(=O)c2ccc(-n3[se]c4ccccc4c3=O)cc2)C(OC(=O)c2ccccc2)C(OC(=O)c2ccccc2)[C@@H]1OC(=O)c1ccccc1)c1ccccc1 (some centres unmarked) too.
8%

Please give the result for CC(=O)OCC1O[C@@H](NC(=O)c2ccc(-n3[se]c4ccccc4c3=O)cc2)C(OC(C)=O)C(OC(C)=O)[C@@H]1O[C@@H]1OC(COC(C)=O)[C@H](OC(C)=O)C(OC(C)=O)C1OC(C)=O (some centres unmarked) too.
12%
